assay explanation: Inhibition of reverse transcriptase Y181C mutant in HIV-1 3B infected in human MT4 cells assessed as inhibition of viral replication after 5 days by cell titer glo based luciferase reporter gene assay
measurement name: EC50

>>> data_value("COc1cc(F)c(C(=O)c2ccnc(Nc3ccc(C#N)cc3)n2)c(F)c1")
"> 500 nM"

* * *

assay explanation: Inhibition of HIV-1 3B reverse transcriptase K103N mutant infected in human MT4 cells assessed as inhibition of viral replication after 5 days by cell titer glo based luciferase reporter gene assay
pEC50: −log10 of the molar value.
measurement name: pEC50

>>> data_value("COc1cc(F)c(C(=O)c2ccnc(Nc3ccc(C#N)cc3)n2)c(F)c1")
6.46
